# experimental.target: CaM (Bos taurus)
# Construct: made in house; host or cells: E. coli BL21 (DE3)
# procedure.text: Pull-down assay with immobilized protein and LSM libraries
# Type: binding, bovine
# measurement.setup: H14 library; 1:2 stoichiometry assumed; read-out: Surface mapping KD (apparent)
measurement.kind: Kd

The following compounds have reported results that may help.
CSCC[C@@H](CC(=O)N[C@H]1CCCC[C@@H]1C(N)=O)NC(=O)[C@H]1CCCC[C@@H]1NC(=O)[C@H]1CCCC[C@@H]1NC(=O)C[C@H](CC(C)C)NC(=O)[C@H]1CCCC[C@@H]1N	14 µM
C[C@@H](CC(=O)N[C@H]1CCCC[C@@H]1C(=O)N[C@H]1CCCC[C@@H]1C(=O)N[C@H](CC(=O)N[C@H]1CCCC[C@@H]1C(N)=O)Cc1c[nH]c2ccccc12)NC(=O)[C@H]1CCCC[C@@H]1N	2 µM

Reported Kd, compound CC(C)C[C@@H](CC(=O)N[C@H]1CCCC[C@@H]1C(N)=O)NC(=O)[C@H]1CCCC[C@@H]1NC(=O)[C@H]1CCCC[C@@H]1NC(=O)C[C@H](CC(N)=O)NC(=O)[C@H]1CCCC[C@@H]1N : ____
76 µM
